assay: amyloid nucleation score (Sup35N fusion, yeast selection) (log enrichment); library NNK3; higher = more nucleation; inactive = no reads after selection;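 further: zero at mode of non-aggregating sequences after 7 days selection at 30°C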
measurement label: amyloid nucleation score

- residue string: "GCKYSATTAHCADKSVPVTG"
  assay value: "inactive"
- residue string: "LLVAYPHYAGFCTAVSSKSG"
  assay value: "inactive"
- residue string: "ANYVYNQTVMCS"
  assay value: "inactive"

----------
experiment: amyloid nucleation score (Sup35N fusion, yeast selection) (log enrichment); library NNK3; higher = more nucleation; inactive = no reads after selection
measurement label: amyloid nucleation score

- substance: "DLITSRSVLFVIVVL"
  amyloid nucleation score: "inactive"
- substance: "WCAVMPFRSVTSNVIFDLSV"
  amyloid nucleation score: "inactive"
- substance: "DQAIVLVNFVSASSVPPKIF"
  amyloid nucleation score: 0.498
- substance: "TVYSRHIDRGYWIADGCSRV"
  amyloid nucleation score: "inactive"

Enquiry: # lookup: amyloid nucleation score of SPAHGLGFDMKMVVFMFGDR
Return: 1.54

Enquiry: # iterate: TNNAIGVFSLECIGFPEAGR
Return: inactive

Enquiry: # iterate: REASVECH
Return: inactive

Enquiry: # iterate: KVNAFTCTKSFGLCVSESFT
Return: inactive

Enquiry: # iterate: AQTYSMCFNITKHPYNSMCG
Return: inactive

Enquiry: # iterate: GKPWGTGSLVLWYLYDEDCA
Return: inactive
